Ref: patent US6737383B1

Tested on: cocklebur
PROTOCOL TEXT: Test B pre/postemergence cocklebur
Assay type: in vivo, Xanthium strumarium
MEASUREMENT PARAMETERS: Rate 500 g/ha, Postemergence; scale 0 to 10, 0 no effect, 10 complete control
Recorded Cocklebur plant response rating for the following molecules
Form field (numeric): enter value without unit.

Returns the measured Cocklebur plant response rating for the input molecule. Input: `Cc1nn(C)c(C)c1-n1c(=O)on(C(=O)N(c2ccccc2)C(C)C)c1=O`
4

Now try `CC(C)N(C(=O)n1oc(=O)n(Cc2cccs2)c1=O)c1ccc(F)cc1` .
1

Now try `Cc1ccccc1-n1c(=O)on(C(=O)N(c2ccc(C#N)cc2)C(C)C)c1=O` .
0

Now try C=CCn1c(=O)on(C(=O)N(c2ccc(F)cc2)C(C)C(=O)OCC)c1=O (stereo not drawn) .
0

Now try `CC(C)N(C(=O)n1oc(=O)n(C2CCCCC2)c1=O)c1ccc(Cl)cc1` .
3

Now try CC(C)N(C(=O)n1oc(=O)n(C(C)C(=O)c2ccccc2)c1=O)c1ccc(F)cc1 (stereo not drawn) .
0
